# protocol description: M. tuberculosis H37Rv growth inhibitors, H37Rv strain (AID 1626);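 note: bacteria incubated seven days before Alamar blue readout; 0% = bacteria only wells and 100% = bacteria with antibiotic wells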
# experimental parameters: active compounds read high, concentration not given here
Screen size: about 220,000 compounds; about 2,000 (0.91%) were called active. Not shown: some 2% with an inconclusive outcome. These entries were drawn from the full list. Entries with a potency or affinity are not part of this list.

| compound smiles | inhibition, % |
| --- | --- |
| COc1ccc(CCNC(=O)CSc2nc3ccccc3o2)cc1 | 96.4 |
| O=S(=O)(c1ccc(Cl)c(S(=O)(=O)N2CCCC2)c1)N1CCCC1 | -11.7 |
| O=C(Nc1csc([N+](=O)[O-])c1)Nc1c(Cl)cccc1Cl | 0.45 |
| O=C(CSc1nc2ccccc2o1)Nc1ccccc1 | -0.33 |
| Cc1occc1-c1nnc(SCC(=O)Nc2ccccn2)o1 | 10 |

---

# protocol description: M. tuberculosis H37Rv growth inhibitors, H37Rv strain (AID 1626);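 note: bacteria incubated seven days before Alamar blue readout; 0% = bacteria only wells and 100% = bacteria with antibiotic wells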
# experimental parameters: active compounds read high, concentration not given here
Hit rate of the full screen: of about 220,000 compounds, about 2,000 (0.91%) were called active. Not shown: some 2% with an inconclusive outcome. These entries were drawn from the full list. Measured potencies and affinities stand elsewhere.
endpoint label: inhibition (%)

| molecule | units | readout value |
| --- | --- | --- |
| COc1ccc2[nH]cc(CCNC(=S)NC3CCCC3)c2c1 | % | 4.31 |
| COc1ccc(CCNC(=O)c2c(N)n(CCN3CCOCC3)c3nc4ccccc4nc23)cc1OC | % | 20.2 |
| Cc1ccc2c(c1)c1c3n2CCCNC3CCC1 (centres undefined) | % | 3.76 |
| CCN(CC)CCCNc1nc2cc(OC)c(OC)cc2c2nc(-c3cccnc3)nn12 | % | 7.65 |
| COC(=O)CSc1nc2c(c(-c3ccc(O)cc3)c1C#N)CCCC2 | % | -6.65 |
| C#CCn1c(=NC(=O)c2ccc(Br)s2)sc2cccc(OC)c21 | % | 49.8 |
| Cc1cccc(C)c1NC(=O)c1c(C)nn(-c2ccccc2)c1Cl | % | -2.35 |
| COc1cccc(NC(=O)CSc2nc3c(c(-c4ccco4)c2C#N)CCCC3)c1 | % | -2.62 |
| CCN(CC)CCNc1nc2cc(OC)c(OC)cc2c2nc(-c3ccccc3)nn12 | % | 75 |
| O=C(NCCSc1ccccc1)c1ccccc1 | % | -18.6 |
| CCC(CC)C1C(C#N)=C(N)Oc2cc(C)oc(=O)c21 (centres undefined) | % | -11.1 |
| CCOC(=O)c1ccc(NC(=O)CN(C)S(=O)(=O)c2ccc(OC)cc2)cc1 | % | -10.7 |
| CSc1nc2ccc(NC(=O)C3CC(=O)N(Cc4ccco4)C3)cc2s1 (centres undefined) | % | 7.1 |
| O=C(/C=C/c1cccs1)Nc1ccc([N+](=O)[O-])cc1 | % | 4.49 |

---

# protocol description: M. tuberculosis H37Rv growth inhibitors, H37Rv strain (AID 1626);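 note: bacteria incubated seven days before Alamar blue readout; 0% = bacteria only wells and 100% = bacteria with antibiotic wells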
# experimental parameters: active compounds read high, concentration not given here
About 2,000 (0.91%) of roughly 220,000 compounds were called active. Not shown: some 2% with an inconclusive outcome. These entries were drawn from the full list. Measured potencies and affinities stand elsewhere.
Overview of reported inhibition across a group of molecules:
endpoint label: inhibition (%)

| molecule | readout value |
| --- | --- |
| CS(=O)(=O)N(CCc1ccccc1)CC(=O)NCc1ccccc1Cl | 6 |
| Cc1sc2nc(Cc3ccccc3)[nH]c(=O)c2c1-c1ccccc1 | -4.69 |
| OCCN1CCN(CC(O)COc2ccc(Cl)cc2)CC1 (centres undefined) | 1.07 |
| O=C(Nc1ccc(N2CCOCC2)cc1)c1cc2c(s1)CCCC2 | -7.27 |
| CC(C)Cn1c(N2CCN(C(=O)c3cccs3)CC2)nc2ccccc21 | -13.3 |
| COC(=O)[C@@]1(Cc2ccc(F)cc2)[C@H]2c3cc(C(=O)N(C)C)n(Cc4ccccn4)c3C[C@H]2CN1C(=O)c1ccccc1 | 8.03 |
| c1ccc(C(OCCN2CCNCC2)c2ccccc2)cc1 | -7.41 |
| Cc1cc(C)n(-c2nnc(C)c(=O)[nH]2)n1 | -3.09 |
| CCN1CCN(C(c2cc3cccc(C)c3[nH]c2=O)c2nnnn2Cc2ccccc2)CC1 (centres undefined) | -2.17 |
| O=C1N(Cc2cccnc2)C[C@@H]2C[C@@H](c3cccc(C(F)(F)F)c3)N3CCC[C@@]123 | 2.57 |
| CC(Nc1nc(-c2ccc(F)cc2)cs1)c1nc2cc(Cl)c(N3CCCCC3)cc2n1CCOCCO (centres undefined) | 19.6 |
| CNc1ncnc2sc(-c3ccccc3)cc12 | -0.065 |
| Fc1ccc(C(OCCN2CCCC2)c2ccc(F)cc2)cc1 | 3.27 |
| Cc1ccc(C(=O)CSc2ncnc3ccccc23)o1 | 10.6 |
| CCCCCCn1c(=O)c(C(=O)Nc2c(C)n(C)n(-c3ccccc3)c2=O)c(O)c2ccccc21 | -5.05 |
| O=c1[nH]cnc2sc(-c3ccccc3)cc12 | 40 |
| Clc1ccc(C(c2ccccc2)N2CCNCC2)cc1 (centres undefined) | 0.35 |
| CC(Nc1nc(-c2ccc(Cl)cc2)cs1)c1nc2cc(Cl)c(N3CCCCC3)cc2n1CCOCCO (centres undefined) | 44.5 |
| CC1CCCN(S(=O)(=O)c2ccc3c(c2)CCN3C(=O)C2CCC2)C1 (centres undefined) | 5.83 |
